This collection of values is drawn from PubChem BioAssay (NCI).

Listed here are compounds together with their documented growth inhibition.
- testDetails: NCI Yeast Anticancer Drug Screen. Data for the mec2-1 strain (AID 157)
- testConditions: S. cerevisiae mec2-1 strain, at 50.0 µM, active compounds read high
About 79,000 compounds went through this panel and 15% of them were active in at least one assay; those are over-represented in the sample as a whole. Calls of active or inactive are those of the source. Rule as the data show it: active = growth inhibition above about 70%; inactive = the rest.
resultType: growth inhibition

{"compound": "COc1ccc(C(=C(I)c2ccccc2)c2ccc(OC)cc2)cc1", "result": "-26.4% (inactive)"}
{"compound": "O=C(CSCSCC(=O)Nc1ccc(C2=NCCN2)cc1)Nc1ccc(C2=NCCN2)cc1", "result": "18.4% (inactive)"}
{"compound": "CC(OCc1ccccc1)C(NC(=O)C1CSSCC(NC(=O)C(Cc2ccccc2)NC(=O)OCc2ccccc2)C(=O)NC(Cc2ccccc2)C(=O)NC(Cc2cn(C=O)c3ccccc23)C(=O)NC(CCCCNC(=O)OCc2ccccc2)C(=O)NC(C(C)OCc2ccccc2)C(=O)N1)C(N)=O (centres undefined)", "result": "0.7% (inactive)"}
{"compound": "CN(C)c1ccc(C2N(C)CCN2C)cc1", "result": "6.85% (inactive)"}
{"compound": "C/C(CC/C(C)=N/NC(N)=O)=N/NC(N)=O", "result": "-3.5% (inactive)"}
{"compound": "CC(=O)NC1C(OCC(=O)NCCNc2ccc([N+](=O)[O-])c3[nH]c4ccccc4c(=O)c23)C(O)C(CO)OC1(C)OCc1ccccc1 (centres undefined)", "result": "-39.9% (inactive)"}
{"compound": "Cc1cc(OCCOc2ccc(N)cc2)ccc1N1C(N)=NC(N)=NC1(C)C", "result": "12.7% (inactive)"}
{"compound": "COc1cc(/C=C/C(=O)c2sc(NNC(C)=O)nc2C)ccc1O", "result": "6.85% (inactive)"}
{"compound": "O=NN(CCCl)C(=O)N[C@H]1CCC[C@@H](O)C1", "result": "-3.35% (inactive)"}
{"compound": "O=C(O)c1cccnc1Cl", "result": "-3.5% (inactive)"}
{"compound": "O=C1OC(=O)C2C3C=CC(CC3)C12 (centres undefined)", "result": "4% (inactive)"}
{"compound": "Nc1nc(N)c(N=Nc2ccc(S(=O)(=O)O)cc2)c(N)n1", "result": "-5.3% (inactive)"}
{"compound": "O=C1NC(c2ccccc2)(c2ccccc2)C(=O)N1CCCCCCN1C(=O)NC(c2ccccc2)(c2ccccc2)C1=O", "result": "3.45% (inactive)"}
{"compound": "COc1ccc(/C(Cl)=C/c2cc(OC)ccc2OC)cc1", "result": "-10.7% (inactive)"}
{"compound": "COc1cc(C(=O)NC(CCN)(c2ccccc2)c2ccccc2)cc(OC)c1OC", "result": "30.4% (inactive)"}
{"compound": "CC[n+]1ccc(/C=C\\c2c(Cl)cccc2Cl)cc1", "result": "-17.6% (inactive)"}
{"compound": "CN(C)CCNc1ccc(NCCN(C)C)c2c1C(=O)c1ncsc1C2=O", "result": "-0.8% (inactive)"}
{"compound": "CC(=O)CC(C)(C)NC(=S)NCCO", "result": "-26.5% (inactive)"}
{"compound": "CC(NS(=O)(=O)c1ccccc1)C(N)=O (centres undefined)", "result": "2.1% (inactive)"}
{"compound": "COc1cc(OC)c2[nH]c3c(c(=O)c2c1)C(=O)c1[nH]c2c(OC)cc(OC)cc2c(=O)c1C3=O", "result": "4.55% (inactive)"}
{"compound": "OCC(O)C(O)C(O)C(O)CNC(CO)(CO)CO (centres undefined)", "result": "13.3% (inactive)"}
{"compound": "O=C(Nc1ccc(Cl)cc1Cl)C(=O)C(C(=O)c1ccncc1)C1OC(=O)c2ccccc21 (centres undefined)", "result": "-38.3% (inactive)"}
{"compound": "COc1cnnc2ccccc12", "result": "3.2% (inactive)"}
{"compound": "CC1=NN(C(=O)c2ccc(Cl)cc2)C(=O)/C1=C/c1ccccc1O", "result": "-14.4% (inactive)"}
{"compound": "CCOC(=O)/C(=C/c1cccc2ccccc12)P(=O)(OCC)OCC", "result": "50.9% (inactive)"}
{"compound": "O=C(CN(c1ccc(S(=O)(=O)O)cc1)c1ccc(S(=O)(=O)O)cc1)Nn1cnc2ccc(S(=O)(=O)N(c3ccc(S(=O)(=O)O)cc3)c3ccc(S(=O)(=O)O)cc3)cc2c1=O", "result": "6.15% (inactive)"}
{"compound": "O=C(O)c1cc(C2CC2)nc2ccc(Br)cc12", "result": "1.7% (inactive)"}
{"compound": "CC/C(C)=N/NC(=O)c1ccc([N+](=O)[O-])cc1", "result": "12% (inactive)"}
{"compound": "C/C(=N\\NC(=S)N1CCCC1)c1ccc[nH]1", "result": "3.05% (inactive)"}
{"compound": "O=C1NC(=O)c2c1c1cnn(-c3ccccc3)c1n1cccc21", "result": "4.35% (inactive)"}
{"compound": "O=C(NCCCCC[N+](CCCCCNC(=O)c1ccccc1)(CCCCCNC(=O)c1ccccc1)CCCCCNC(=O)c1ccccc1)c1ccccc1", "result": "10.4% (inactive)"}
{"compound": "COC(=O)CC1C=CC(OC)[C@@]2(C)C(=O)C(OC)=CC(=O)[C@@H]12 (some centres undefined)", "result": "-15.1% (inactive)"}
{"compound": "CCCC(=O)c1ccc(C)cc1", "result": "-18.8% (inactive)"}
{"compound": "Cc1ccc2c(c1)nc1n2C(c2c(F)cccc2F)SC1 (centres undefined)", "result": "-6.45% (inactive)"}
{"compound": "Brc1ccccc1C=NC12CC3CC(CC(C3)C1)C2", "result": "-7.5% (inactive)"}
{"compound": "CCO/C(C)=C(/C(C)=O)C(=O)NC1CCCCC1", "result": "15.5% (inactive)"}
{"compound": "CC(C)=NOC(=O)Nc1ccccc1", "result": "-19.8% (inactive)"}
{"compound": "c1ccc(C2=NN(c3ccccc3)C3C4CCC(C4)C23)cc1 (centres undefined)", "result": "8.15% (inactive)"}
{"compound": "c1ccc(Cn2nnc(-c3ccccc3)n2)cc1", "result": "8.45% (inactive)"}
{"compound": "COc1ccc(Nc2nc(N)nc3c2ncn3C2OC(CO)C(O)C2O)cc1 (centres undefined)", "result": "-17.9% (inactive)"}
{"compound": "O=C1C2=C(Nc3cc([N+](=O)[O-])ccc3N2)OC1c1ccc(Cl)cc1Cl (centres undefined)", "result": "23.4% (inactive)"}
{"compound": "O=c1[nH]c(=O)c2nnoc2[nH]1", "result": "7.65% (inactive)"}
{"compound": "O=C(O)c1cccc(Sc2ccccc2)c1", "result": "9.25% (inactive)"}
{"compound": "CCCCCCCCCCCC(=O)NC(=S)Nc1ccc(C)c(C)c1", "result": "58.2% (inactive)"}

---

growth inhibition for assorted molecules
- testDetails: NCI Yeast Anticancer Drug Screen. Data for the rad50 strain (AID 155);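 also: 0% = growth of vehicle-only cultures of the same strain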
- testConditions: S. cerevisiae rad50 strain growth inhibition; at 50.0 µM; active compounds read high
This is part of a sample that, as a whole, favours compounds with a hit. Of some 79,000 tested, about 15% had one in any assay.
resultType: growth inhibition (%)

{"molecule": "COc1cc2c(cc1OC)C1CCN3CCCC3N1CC2 (configuration not stated)", "quantitativeResult": -7.8}
{"molecule": "CNc1ccccc1C", "quantitativeResult": 37.6}
{"molecule": "O=C(CC(=O)n1nc(-c2ccccc2)c(N=Nc2ccccc2Cl)c1-c1ccccc1)Nc1ccc(Cl)cc1", "quantitativeResult": -9.5}
{"molecule": "COc1cc2c(c(OC)c1OC)-c1ccc(OC)c(=O)cc1C(NC(=O)COc1ccccc1)CC2 (configuration not stated)", "quantitativeResult": 16.5}
{"molecule": "CC1OC(=O)/C(=C\\N(C)C)C1=O (configuration not stated)", "quantitativeResult": 1.25}
{"molecule": "CC(C)(C)OC(=O)NC1CC=CCC1NC(=O)OC(C)(C)C (configuration not stated)", "quantitativeResult": -52.7}
{"molecule": "CC(C)(CO)[C@@H](O)C(=O)NCCC(=O)O", "quantitativeResult": -27.5}
{"molecule": "Cc1ccc(CNC(=O)NC(C)(C)C)cc1", "quantitativeResult": -3.05}
{"molecule": "O=C1c2ccccc2C(=O)N1c1cccc([N+](=O)[O-])c1", "quantitativeResult": 0.5}
{"molecule": "C=CCNC(=O)N(CCCC(NC(C)=O)C(=O)NCc1ccccc1)Cc1ccccc1 (configuration not stated)", "quantitativeResult": 2.5}
{"molecule": "CCCCCC#CC1OC1(C)C (configuration not stated)", "quantitativeResult": -2.1}
{"molecule": "C1=C(c2ccccc2)CC(c2ccc(-c3ccccc3)cc2)=C1", "quantitativeResult": 6.9}
